# target-under-test: Sigma non-opioid intracellular receptor 1 (Cavia porcellus, UniProt Q60492)
# Sequence (Q60492 whole entry): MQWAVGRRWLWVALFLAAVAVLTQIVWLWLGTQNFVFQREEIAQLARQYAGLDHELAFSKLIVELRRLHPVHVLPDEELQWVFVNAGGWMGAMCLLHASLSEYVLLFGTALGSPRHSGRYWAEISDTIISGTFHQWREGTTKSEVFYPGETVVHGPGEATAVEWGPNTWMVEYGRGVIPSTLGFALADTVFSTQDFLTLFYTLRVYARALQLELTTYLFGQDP
# test-protocol: Displacement of [3H]-(+)pentazocine from sigma-1 receptor in guinea pig brain membranes after 180 mins by scintillation counting method
# Format: cell membranes

{"columns": ["compound", "target-under-test", "Ki, nM"],
 "data": [
  ["COc1ccc2c(c1)CCN(CCCCc1ccccc1)CC2O (stereo unspecified)", "Sigma non-opioid intracellular receptor 1 (Cavia porcellus, UniProt Q60492)", 211]
]}

---

# target-under-test: Sigma intracellular receptor 2 (Rattus norvegicus) (UniProt Q5U3Y7)
# Sequence (Q5U3Y7 whole entry): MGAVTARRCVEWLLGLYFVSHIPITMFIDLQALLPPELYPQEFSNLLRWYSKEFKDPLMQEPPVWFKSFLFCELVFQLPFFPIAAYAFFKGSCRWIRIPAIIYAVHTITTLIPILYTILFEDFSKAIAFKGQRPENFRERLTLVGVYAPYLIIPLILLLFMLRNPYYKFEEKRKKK
# test-protocol: Displacement of [3H]-Di-o-tolylguanidine from sigma-2 receptor in rat liver membranes after 120 mins by scintillation counting method relative to control
# Assay type: cell membranes
# Set-up: concentration or dose not given beside the values
quantity-name: inhibition (%)

{"columns": ["compound", "quantity-name", "result-units", "numeric-result"],
 "data": [
  ["COc1ccc2c(c1)CCN(CCC#Cc1ccccc1)CC2O (centres undefined)", "inhibition", "%", 15],
  ["COc1ccc2c(c1)CCN(CCC#Cc1cccnc1)CC2O (centres undefined)", "inhibition", "%", 9],
  ["COc1ccc2c(c1)CCN(CCC#Cc1ccccc1OCCF)CC2O (centres undefined)", "inhibition", "%", 22],
  ["COc1ccc2c(c1)CCN(CCCCc1cn(CCF)nn1)CC2O (centres undefined)", "inhibition", "%", 0],
  ["OC1CN(CCC#Cc2ccc(OCCF)cc2)CCc2cc(OCc3ccccc3)ccc21 (centres undefined)", "inhibition", "%", 12],
  ["COc1ccc2c(c1)CCN(CCC#Cc1cccs1)CC2O (centres undefined)", "inhibition", "%", 20],
  ["COc1ccc2c(c1)CCN(CCC#Cc1ccc(OCCF)cc1)CC2O (centres undefined)", "inhibition", "%", 12],
  ["COc1ccc2c(c1)CCN(CCC#Cc1cccc(OCCF)c1)CC2O (centres undefined)", "inhibition", "%", 23],
  ["COc1ccc2c(c1)CCN(CCC#Cc1nccs1)CC2O (centres undefined)", "inhibition", "%", 0]
]}
